From: ChEMBL document CHEMBL5236610

# Tested on: PC-3
# METHOD: Antiproliferative activity against human PC-3 cells incubated for 24 hrs by CCK-8 assay
# Format: functional, cell-based
# MEASUREMENT SETUP: PC-3, 24 h
REPORTED METRIC: IC50 (µM)
Your answer is read as µM, so omit the unit and give the number.

Param item: COc1ccc(-c2cc(=O)c3c(OC)c(OC)c(OC)c(OC)c3o2)cc1OC ; param system: PC-3; output IC50: 123

====

# TARGET UNDER TEST: Androgen receptor (Homo sapiens, UniProt P10275)
# Sequence (P10275 whole entry, the tested form may be a part): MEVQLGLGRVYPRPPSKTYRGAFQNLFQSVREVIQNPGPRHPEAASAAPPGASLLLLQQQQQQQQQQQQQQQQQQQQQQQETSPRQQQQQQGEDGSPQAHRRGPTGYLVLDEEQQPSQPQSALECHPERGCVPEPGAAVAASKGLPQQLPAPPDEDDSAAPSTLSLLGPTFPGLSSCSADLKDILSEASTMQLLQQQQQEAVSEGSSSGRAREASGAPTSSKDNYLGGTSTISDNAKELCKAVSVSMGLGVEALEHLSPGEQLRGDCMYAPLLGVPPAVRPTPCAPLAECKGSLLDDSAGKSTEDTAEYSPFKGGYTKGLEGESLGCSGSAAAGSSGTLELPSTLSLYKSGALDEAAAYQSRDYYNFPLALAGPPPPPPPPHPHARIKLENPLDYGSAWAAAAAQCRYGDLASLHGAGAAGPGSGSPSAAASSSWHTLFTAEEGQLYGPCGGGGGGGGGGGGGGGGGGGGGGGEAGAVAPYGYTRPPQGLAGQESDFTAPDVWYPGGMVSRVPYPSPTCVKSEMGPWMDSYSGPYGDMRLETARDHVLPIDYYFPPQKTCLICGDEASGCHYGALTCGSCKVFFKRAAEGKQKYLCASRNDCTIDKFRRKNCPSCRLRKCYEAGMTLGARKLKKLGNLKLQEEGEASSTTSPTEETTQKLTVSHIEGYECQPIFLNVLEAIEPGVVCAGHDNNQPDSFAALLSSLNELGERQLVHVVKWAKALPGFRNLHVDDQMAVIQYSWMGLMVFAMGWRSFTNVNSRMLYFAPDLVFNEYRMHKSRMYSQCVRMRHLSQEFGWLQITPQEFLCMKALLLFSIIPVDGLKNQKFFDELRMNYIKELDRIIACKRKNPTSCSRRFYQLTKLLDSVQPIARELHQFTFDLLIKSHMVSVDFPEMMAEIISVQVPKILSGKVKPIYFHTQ
# METHOD: Inhibition of AR LBD in human LNCaP cells
# Type: cell-based
REPORTED METRIC: IC50 (nM)
The figure you give is taken to be in nM; do not add the unit.

# molecule CC1(C)C(=O)N(c2ccc(C#N)c(C(F)(F)F)c2)C(=S)N1CCCC(=O)NCCOCCOC(=O)CC12CC3CC(CC(C3)C1)C2 ; its IC50 = 156
